# experimental system: Sirt3 (hSirt3 118-399) (Homo sapiens, UniProt Q9NTG7)
# Sequence (Q9NTG7 118-399): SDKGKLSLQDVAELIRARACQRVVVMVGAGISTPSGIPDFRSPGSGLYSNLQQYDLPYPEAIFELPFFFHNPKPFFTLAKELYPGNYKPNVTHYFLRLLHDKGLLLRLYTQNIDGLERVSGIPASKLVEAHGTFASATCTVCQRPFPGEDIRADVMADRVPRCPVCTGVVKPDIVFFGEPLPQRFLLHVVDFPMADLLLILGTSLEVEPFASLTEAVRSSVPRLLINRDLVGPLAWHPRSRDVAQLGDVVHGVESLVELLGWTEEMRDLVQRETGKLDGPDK
# assay name: switchSENSE kinetics
# recorded conditions: absence of cofactors; HDAC buffer, 5% DMSO, 25 °C
experimental readout: pKd
Would you please state pKd, meaning minus log10 of the concentration in mol/L, as a bare number?

Q: # get_value(readout='pKd', item= CCCCNC(=O)COc1ccc2c(c1)CCc1ccccc1C2NC(=O)CCCOc1cc([N+](=O)[O-])c(C(C)O)cc1OC (stereo not shown) )
Result: 5.34
